For each record, write down the corresponding koff.
Molecular target: human IL-6 (human, UniProt P05231 30-212)
Sequence (P05231 30-212 limits assumed): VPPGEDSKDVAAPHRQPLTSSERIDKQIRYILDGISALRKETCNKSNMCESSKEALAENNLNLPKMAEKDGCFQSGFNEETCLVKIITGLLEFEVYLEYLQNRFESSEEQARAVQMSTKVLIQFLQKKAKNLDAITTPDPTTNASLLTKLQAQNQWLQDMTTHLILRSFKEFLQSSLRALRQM
Test: SPR (Biacore), supernatant antibody on Protein A chip, IL-6 flowed, 37 C
Number only, in s⁻¹; omit the unit.

koff recorded for this binder, anti-IL-6 antibody, heavy chain T65Y, G66D / light chain M32L, M50D, N52S, M88Q (antibody, human IgG1, V domains shown, Human IgG1) VH: EVQLVESGGGLVQPGGSLRLSCAASGFTFSPFAMSWVRQAPGKGLEWVAKISPGGSWTYYSDTVYDRFTFSLDTSKSTAYLQMNSLRAEDTAVYYCARQLWGYYALDIWGQGTLVTVSS VL: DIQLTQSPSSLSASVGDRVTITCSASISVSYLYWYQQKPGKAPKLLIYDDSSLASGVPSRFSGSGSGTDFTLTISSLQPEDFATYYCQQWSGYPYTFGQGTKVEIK , is 0.000367

koff recorded for this binder, anti-IL-6 antibody, heavy chain T63D, G66D / light chain M32L, M50D, N52S, M88Q (antibody, human IgG1, V domains shown, Human IgG1) VH: EVQLVESGGGLVQPGGSLRLSCAASGFTFSPFAMSWVRQAPGKGLEWVAKISPGGSWTYYSDDVTDRFTFSLDTSKSTAYLQMNSLRAEDTAVYYCARQLWGYYALDIWGQGTLVTVSS VL: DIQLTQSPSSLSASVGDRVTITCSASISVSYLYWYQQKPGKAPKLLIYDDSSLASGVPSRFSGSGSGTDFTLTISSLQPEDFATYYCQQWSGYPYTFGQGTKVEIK , is 0.000413

koff recorded for this binder, anti-IL-6 antibody, heavy chain T63R, G66D / light chain M32L, M50D, N52S, M88Q (antibody, human IgG1, V domains shown, Human IgG1) VH: EVQLVESGGGLVQPGGSLRLSCAASGFTFSPFAMSWVRQAPGKGLEWVAKISPGGSWTYYSDRVTDRFTFSLDTSKSTAYLQMNSLRAEDTAVYYCARQLWGYYALDIWGQGTLVTVSS VL: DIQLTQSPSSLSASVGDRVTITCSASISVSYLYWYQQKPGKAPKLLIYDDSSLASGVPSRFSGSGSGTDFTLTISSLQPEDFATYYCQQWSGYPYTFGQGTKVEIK , is 0.000526
